Origin of measurements: ChEMBL document CHEMBL5725651

Each entry below carries its recorded pEC50.
Test: HT3 cells were treated for three days with increasing concentrations of PMPG-diisopropyloxy ester ranging from 0.2 μM to 20 μM. Cells (HT3 RPMI+10% PBS) were incubated with compound for 24 hr after which PSTS primer (phosphorothioate-d(AATCCGTCGAGCAGAGTT (SEQ ID NO: 6) containing a 5′ Cy-5 label) (7.5 μM) and fresh compound are added for an additional 24 hr. Cells were lysed and endogenous telomerase inactivated by heating (15 min, 75° C.). Products were amplified by 30 cycles of PCR under TRAP conditions set forth above and quantified.
Settings: HT-3
pEC50: −log10 of the molar value.
measurement kind: pEC50

compound=C=C(COCP(=O)(OCOC(=O)OC(C)C)OCOC(=O)OC(C)C)Cn1cnc2c(=O)[nH]c(N)nc21 measurement_kind=pEC50 assay_value=4.96
compound="CC(C)OC(=O)OCOP(=O)(COC(C)Cn1cnc2c(=O)[nH]c(N)nc21)OCOC(=O)OC(C)C (configuration not stated)" measurement_kind=pEC50 assay_value=5.67
